Sourced from patent US8802866B2

Kindly state pIC50 for each of the entries shown.
- assay_system: PI3Kalpha (Homo sapiens)
- Sequence (P42336 whole entry): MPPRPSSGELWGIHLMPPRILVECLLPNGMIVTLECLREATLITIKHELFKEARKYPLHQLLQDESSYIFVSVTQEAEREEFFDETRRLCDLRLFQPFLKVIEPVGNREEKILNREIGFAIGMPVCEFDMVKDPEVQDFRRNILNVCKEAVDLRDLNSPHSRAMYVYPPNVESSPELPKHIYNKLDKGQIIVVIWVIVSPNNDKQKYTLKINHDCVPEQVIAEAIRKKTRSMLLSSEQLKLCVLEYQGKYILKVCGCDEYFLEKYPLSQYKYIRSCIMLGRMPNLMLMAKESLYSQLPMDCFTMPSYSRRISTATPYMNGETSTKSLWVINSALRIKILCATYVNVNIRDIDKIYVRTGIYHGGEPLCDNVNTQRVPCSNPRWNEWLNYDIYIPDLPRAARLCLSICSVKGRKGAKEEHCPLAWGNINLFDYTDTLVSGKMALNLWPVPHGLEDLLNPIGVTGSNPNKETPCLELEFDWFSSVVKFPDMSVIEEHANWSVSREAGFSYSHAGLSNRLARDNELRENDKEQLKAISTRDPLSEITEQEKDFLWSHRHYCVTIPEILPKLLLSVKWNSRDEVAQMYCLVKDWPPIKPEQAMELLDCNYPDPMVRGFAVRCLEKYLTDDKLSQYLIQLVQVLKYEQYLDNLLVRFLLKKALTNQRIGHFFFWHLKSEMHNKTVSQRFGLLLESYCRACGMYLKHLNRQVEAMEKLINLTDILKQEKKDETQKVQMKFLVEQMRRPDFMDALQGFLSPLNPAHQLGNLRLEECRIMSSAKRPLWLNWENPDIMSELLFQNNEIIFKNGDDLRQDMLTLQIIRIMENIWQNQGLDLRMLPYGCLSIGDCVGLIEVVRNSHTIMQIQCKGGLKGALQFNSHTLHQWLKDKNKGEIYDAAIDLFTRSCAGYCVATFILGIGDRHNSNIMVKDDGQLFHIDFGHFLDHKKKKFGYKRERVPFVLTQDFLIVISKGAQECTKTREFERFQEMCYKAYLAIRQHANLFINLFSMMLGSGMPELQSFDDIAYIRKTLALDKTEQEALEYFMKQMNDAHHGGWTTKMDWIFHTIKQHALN
- Sequence (P27986 whole entry partner): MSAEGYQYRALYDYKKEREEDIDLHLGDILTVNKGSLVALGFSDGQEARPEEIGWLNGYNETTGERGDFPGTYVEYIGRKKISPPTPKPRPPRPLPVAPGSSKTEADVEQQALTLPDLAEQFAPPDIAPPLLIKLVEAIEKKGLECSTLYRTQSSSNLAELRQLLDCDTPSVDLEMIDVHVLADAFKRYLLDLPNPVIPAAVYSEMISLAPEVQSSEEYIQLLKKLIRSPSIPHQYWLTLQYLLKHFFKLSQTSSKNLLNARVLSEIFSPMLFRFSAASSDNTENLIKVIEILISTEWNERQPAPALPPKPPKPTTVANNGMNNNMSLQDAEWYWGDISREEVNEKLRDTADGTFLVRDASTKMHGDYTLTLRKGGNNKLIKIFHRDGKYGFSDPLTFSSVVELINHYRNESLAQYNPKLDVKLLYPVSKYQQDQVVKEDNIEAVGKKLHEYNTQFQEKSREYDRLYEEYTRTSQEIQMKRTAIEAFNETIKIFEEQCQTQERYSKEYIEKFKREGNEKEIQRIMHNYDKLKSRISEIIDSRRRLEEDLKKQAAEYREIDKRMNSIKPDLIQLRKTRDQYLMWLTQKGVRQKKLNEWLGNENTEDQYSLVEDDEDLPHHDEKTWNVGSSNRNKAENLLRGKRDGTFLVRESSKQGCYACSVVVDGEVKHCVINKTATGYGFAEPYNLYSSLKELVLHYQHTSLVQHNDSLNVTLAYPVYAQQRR
- protocol_summary: Biochemical PI3Kalpha assay (neomycin SPA, lipid phosphorylation)
- condition_description: human recombinant GST-PI3K
pIC50: −log10 of the molar value.

The reported value for Cn1cc(-c2cc(-c3cnc4[nH]cnc4c3)ccn2)n(-c2ccc(C(C)(C)C#N)cc2)c1=O [Example A38] in terms of pIC50 is 7.00 to 10.00

The reported value for Cn1cc(-c2cc(-c3cnc4[nH]ccc4c3)ccn2)n(-c2ccccc2OC(F)(F)F)c1=O [Example A76] in terms of pIC50 is < 5.00

The reported value for CN1CCN(c2ccc(-n3c(-c4cc(-c5cnc6[nH]c(C(C)(C)C)cc6c5)ccn4)cn(C)c3=O)cc2C(F)(F)F)CC1 [Example A86] in terms of pIC50 is 5.00 to 7.00
